Taken from patent US12509446B2.

Test system: MMP3
Assay: Gene expression in rat articular chondrocytes under IL-1β stimulation, MMP3
Type: cell-based
Details: Rattus norvegicus, Chondrocyte; 24 h incubation
Exam item: assign met to entries whose IC50 is below 500 nM and not met to entries at or above 500 nM. Note that a value of exactly 500 nM receives not met.

Recorded results for 4 molecules are shown here.
O=C(Nc1ccc(F)c(CCc2cc(Nc3cnccn3)[nH]n2)c1)c1cccc(C(F)(F)F)c1
met
Cc1nc(C#N)cc(Nc2cc(CCc3cc(NC(=O)c4ccc(CN(C)C)c(C(F)(F)F)c4)ccc3F)n[nH]2)n1
not met
Cc1ccc(NC(=O)c2cccc(C(F)(F)F)c2)cc1CCc1cc(NC(=O)c2ccc(F)cc2)[nH]n1
not met
Cc1ccc(NC(=O)c2cccc(C(F)(F)F)c2)cc1CCc1cc(Nc2cnccn2)[nH]n1
met

Please examine the following record next.
Input line: Field: below-cutoff. Rule: recorded IC50 strictly less than 500 nM. Subject: CC(C)(C#N)c1cc(C(=O)Nc2ccc(F)c(CCc3cc(Nc4cnccn4)[nH]n3)c2)ccn1
Output line: not met

====

Target: Fyn (Homo sapiens (Human))
Sequence (P06241 whole entry): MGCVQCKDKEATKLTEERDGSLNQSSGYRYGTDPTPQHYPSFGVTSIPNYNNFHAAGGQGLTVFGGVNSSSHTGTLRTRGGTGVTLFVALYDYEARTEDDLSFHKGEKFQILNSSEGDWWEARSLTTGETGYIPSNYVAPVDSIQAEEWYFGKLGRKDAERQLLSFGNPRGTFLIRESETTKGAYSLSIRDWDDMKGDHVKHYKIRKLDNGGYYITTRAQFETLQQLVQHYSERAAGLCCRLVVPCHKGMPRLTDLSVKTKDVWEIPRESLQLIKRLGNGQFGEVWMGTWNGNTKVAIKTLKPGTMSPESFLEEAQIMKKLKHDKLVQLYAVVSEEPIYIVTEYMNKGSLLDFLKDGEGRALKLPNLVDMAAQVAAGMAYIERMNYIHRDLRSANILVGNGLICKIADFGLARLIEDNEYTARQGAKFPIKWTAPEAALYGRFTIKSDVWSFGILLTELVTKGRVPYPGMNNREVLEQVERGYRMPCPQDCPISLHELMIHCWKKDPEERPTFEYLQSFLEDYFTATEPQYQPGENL
Assay: Z′-LYTE in vitro Fyn kinase activity assay
Format: biochemical
Details: ATP 50 μM; read-out: FYN KINASE INHIBITION IC50
# if measured IC50 < 10 nM: class 1  # else: class 0

Some solved cases for reference:
CC(=O)N1Cc2cnc(Nc3cc(CCc4cc(NC(=O)c5cccc(C(F)(F)F)c5)ccc4C)n[nH]3)cc2C1 [Compound 34]
class 1
Cc1ccc(NC(=O)NC2CCC(C)(C)CC2)cc1CCc1cc(NC(=O)c2ccc(C3CCN(C)CC3)cc2)[nH]n1 [Compound 25]
class 1

Input line: Problem: For the compound Cc1ccc(NC(=O)c2cccc(C(F)(F)F)c2)cc1CCc1cc(Nc2cnccn2)[nH]n1 [Compound 3] , is IC50 under 10 nM?
Output line: class 1

Input line: Does the reported IC50 of O=C(Nc1ccc(F)c(CCc2cc(Nc3cc4c(cn3)CN(CCO)C4)[nH]n2)c1)c1cccc(C(F)(F)F)c1 [Compound 10] stay below 10 nM?
Output line: class 1

Input line: Given Cc1ccc(NC(=O)c2cccc(C(F)F)c2)cc1CCc1cc(Nc2cnccn2)[nH]n1 [Compound 33] , is recorded IC50 strictly lower than 10 nM?
Output line: class 0

====

IC50: recorded values
Biological target: UniProt:P35968
Sequence (P35968 20-1356): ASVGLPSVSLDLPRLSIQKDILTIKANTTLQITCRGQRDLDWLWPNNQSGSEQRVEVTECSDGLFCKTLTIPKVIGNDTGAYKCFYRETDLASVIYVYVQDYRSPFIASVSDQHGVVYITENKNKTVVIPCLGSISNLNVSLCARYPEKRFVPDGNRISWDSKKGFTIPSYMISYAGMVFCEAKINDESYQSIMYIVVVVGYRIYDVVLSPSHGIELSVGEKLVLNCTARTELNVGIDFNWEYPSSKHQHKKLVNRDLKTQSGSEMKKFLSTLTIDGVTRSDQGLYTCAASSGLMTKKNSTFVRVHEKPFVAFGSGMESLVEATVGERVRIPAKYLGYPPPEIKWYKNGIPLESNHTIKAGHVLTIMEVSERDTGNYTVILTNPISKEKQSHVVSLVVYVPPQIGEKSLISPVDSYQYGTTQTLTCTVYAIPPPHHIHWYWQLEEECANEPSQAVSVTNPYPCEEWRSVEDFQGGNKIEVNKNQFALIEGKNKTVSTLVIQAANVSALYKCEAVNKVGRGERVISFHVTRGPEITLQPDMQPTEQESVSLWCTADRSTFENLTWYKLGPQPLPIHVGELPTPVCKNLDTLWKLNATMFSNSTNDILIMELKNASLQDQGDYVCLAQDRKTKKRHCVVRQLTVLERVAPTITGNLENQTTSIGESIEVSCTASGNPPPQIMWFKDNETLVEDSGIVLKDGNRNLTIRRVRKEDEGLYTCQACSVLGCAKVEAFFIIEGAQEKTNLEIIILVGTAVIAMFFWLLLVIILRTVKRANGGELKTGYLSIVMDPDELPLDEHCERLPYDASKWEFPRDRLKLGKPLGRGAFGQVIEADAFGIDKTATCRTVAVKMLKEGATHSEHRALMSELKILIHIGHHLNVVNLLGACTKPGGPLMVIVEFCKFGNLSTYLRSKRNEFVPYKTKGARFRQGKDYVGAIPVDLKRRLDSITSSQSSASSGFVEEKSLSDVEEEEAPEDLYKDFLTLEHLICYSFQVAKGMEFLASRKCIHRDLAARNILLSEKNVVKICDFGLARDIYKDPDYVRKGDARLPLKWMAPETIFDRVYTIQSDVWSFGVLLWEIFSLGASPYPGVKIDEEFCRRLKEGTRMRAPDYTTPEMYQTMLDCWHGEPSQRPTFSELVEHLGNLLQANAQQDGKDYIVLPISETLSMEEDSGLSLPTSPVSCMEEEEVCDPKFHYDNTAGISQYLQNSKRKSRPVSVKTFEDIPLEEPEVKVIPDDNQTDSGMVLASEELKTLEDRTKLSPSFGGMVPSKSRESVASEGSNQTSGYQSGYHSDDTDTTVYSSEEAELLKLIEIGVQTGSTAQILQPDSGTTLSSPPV
Test: In vitro VEGFR2 kinase activity assay (Eurofins Cerep)
Format: biochemical
Settings: read-out: VEGFR2 KINASE INHIBITION IC50

CCN1Cc2cnc(Nc3cc(CCc4cc(NC(=O)c5cccc(C(F)(F)F)c5)ccc4C)n[nH]3)cc2C1 [Compound 17]
< 10 nM
CN(C)Cc1ccc(C(=O)Nc2cccc(CCc3cc(NC(=O)c4ccc(N5CCOCC5)cc4)[nH]n3)c2)cc1 [Compound 47]
10 nM
Cc1ccc(NC(=O)c2cc(C(F)(F)F)ccc2F)cc1CCc1cc(Nc2cnccn2)[nH]n1 [Compound 7]
< 10 nM
Cc1ncc(Nc2cc(CCc3cc(NC(=O)c4cccc(C(F)(F)F)c4)ccc3F)n[nH]2)cn1 [Compound 40]
< 10 nM

Please fill in: IC50 reported for Cc1ccc(NC(=O)c2ccnc(C(C)(C)O)c2)cc1CCc1cc(Nc2cnccn2)[nH]n1 [Compound 5] = < 10 nM

Memo: Cc1nc(C(=O)Nc2ccc(C)c(CCc3cc(Nc4cnccn4)[nH]n3)c2)c(C(F)(F)F)o1 [Compound 6] , reported IC50: < 10 nM

====

Target: AurA (Homo sapiens (Human))
Sequence (O14965 whole entry): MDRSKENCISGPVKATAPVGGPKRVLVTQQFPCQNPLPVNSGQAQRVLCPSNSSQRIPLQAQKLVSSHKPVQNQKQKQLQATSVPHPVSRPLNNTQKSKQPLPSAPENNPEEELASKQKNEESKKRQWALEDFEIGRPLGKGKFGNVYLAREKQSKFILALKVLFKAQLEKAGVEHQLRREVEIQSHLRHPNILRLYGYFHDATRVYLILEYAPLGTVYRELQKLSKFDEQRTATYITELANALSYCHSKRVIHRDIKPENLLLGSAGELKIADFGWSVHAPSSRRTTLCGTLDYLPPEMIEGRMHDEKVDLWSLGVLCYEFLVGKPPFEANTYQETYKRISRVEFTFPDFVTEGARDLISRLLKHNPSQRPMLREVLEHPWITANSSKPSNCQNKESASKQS
observed-property: IC50

With AurA (Homo sapiens (Human)) as the test system, Cc1ccc(NC(=O)c2cccc(C(F)(F)F)c2)cc1CCc1cc(Nc2cnccn2)[nH]n1 showed IC50 of > 10 µM

====

Test system: IL-1β
Test: Gene expression in rat articular chondrocytes under IL-1β stimulation, IL-1β
Type: cell-based
Settings: Rattus norvegicus, Chondrocyte; 6 h incubation
observed-property: pIC50
The value called pIC50 is obtained by taking minus log10 of the concentration in mol/L.

Cc1ccc(NC(=O)c2cc(C(F)(F)F)ccc2F)cc1CCc1cc(Nc2cnccn2)[nH]n1
7.00
Cc1ccc(NC(=O)c2cc(S(=O)(=O)C3CC3)ccn2)cc1CCc1cc(Nc2cnccn2)[nH]n1
6.52

Sample Cc1nc(C#N)cc(Nc2cc(CCc3cc(NC(=O)c4cccc(S(=O)(=O)N(C)C)c4)ccc3C)n[nH]2)n1 ; pIC50 observed: 5.80

Entry CS(=O)(=O)c1cccc(C(=O)Nc2ccc(F)c(CCc3cc(Nc4cnccn4)[nH]n3)c2)c1 ; pIC50 = 5.41

Summary for this molecule, Cc1ccc(NC(=O)c2cccc(C(F)(F)F)c2)cc1CCc1cc(NC(=O)c2ccc(F)cc2)[nH]n1 : pIC50 is 7.00

====

Molecular target: UniProtKB P35968
Test: ADP-Glo kinase assay at high ATP concentration (0.5 mM), VEGFR2
Format: biochemical
Conditions: ATP 0.5 mM; read-out: VEGFR2 IC50 in the presence of high ATP concentration
observed-property: pIC50
Conceptually, pIC50 converts a concentration in mol/L into minus its log10.

// pIC50 value for Cc1ccc(NC(=O)c2cccc(C(F)(F)F)c2)cc1CCc1cc(Nc2cnccn2)[nH]n1 : 7.24

====

Recorded measurements of IC50, one per entry
System: NF-kB
Experiment: Gene reporter (GR) assay, NF-kB activation after TNFα in JB6 Cl 41-5a (P+) cells
Assay type: cell-based, murine
Conditions: TNFα 2 ng/ml, non toxic concentrations; read-out: Gene reporter (GR) inhibition IC50

Cc1ccc(NC(=O)c2cccc(C(F)(F)F)c2)cc1CCc1cc(Nc2cnccn2)[nH]n1 [Compound 3]
236 nM
Cc1ccc(NC(=O)NC2CCC(C)(C)CC2)cc1CCc1cc(NC(=O)c2ccc(C3CCN(C)CC3)cc2)[nH]n1 [Compound 25]
1420 nM
Cc1ccc(NC(=O)c2cc(S(=O)(=O)C3CC3)ccn2)cc1CCc1cc(Nc2cnccn2)[nH]n1 [Compound 8]
233 nM

Lab note: measured IC50 of CC(=O)N1Cc2cnc(Nc3cc(CCc4cc(NC(=O)c5cccc(C(F)(F)F)c5)ccc4C)n[nH]3)cc2C1 [Compound 34] was 958 nM

====

Biological target: AMPKa
Test: Kinase selectivity (Eurofins Cerep), AMPKa
Conditions: maximal concentration tested 10 μM
Method: The assays were performed in Eurofins Cerep (France). The concentration range of the compound under investigation was from 10^−9 M up to 10^−5 M final concentration.
pIC50: −log10 of the molar value.
observed-property: pIC50

Here Cc1ccc(NC(=O)c2cccc(C(F)(F)F)c2)cc1CCc1cc(Nc2cnccn2)[nH]n1 was tested on AMPKa, and its pIC50 came to < 5.00

====

Assay: Pharmacokinetics, oral route, mice
Details: mouse, in vivo, read-out: Absolute bioavailability
observed-property: bioavailability

# bioavailability of Cc1ccc(NC(=O)c2cccc(C(F)(F)F)c2)cc1CCc1cc(Nc2cnccn2)[nH]n1 = ~12%

====

Target: UniProt P07947
Sequence (P07947 whole entry): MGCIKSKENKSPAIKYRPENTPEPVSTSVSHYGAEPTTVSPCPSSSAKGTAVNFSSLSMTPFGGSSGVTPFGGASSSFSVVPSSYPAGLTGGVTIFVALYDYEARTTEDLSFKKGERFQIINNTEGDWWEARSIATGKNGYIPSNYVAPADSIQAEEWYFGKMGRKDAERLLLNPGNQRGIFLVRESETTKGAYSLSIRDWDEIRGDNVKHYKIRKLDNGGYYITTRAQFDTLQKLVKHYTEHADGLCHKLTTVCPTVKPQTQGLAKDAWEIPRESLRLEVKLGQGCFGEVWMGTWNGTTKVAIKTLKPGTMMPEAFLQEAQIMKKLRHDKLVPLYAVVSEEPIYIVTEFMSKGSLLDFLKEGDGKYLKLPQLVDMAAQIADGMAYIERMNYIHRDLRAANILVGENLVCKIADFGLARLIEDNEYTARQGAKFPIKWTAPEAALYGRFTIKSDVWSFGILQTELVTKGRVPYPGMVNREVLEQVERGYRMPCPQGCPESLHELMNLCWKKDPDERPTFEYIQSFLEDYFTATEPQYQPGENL
observed-property: pIC50
Just the number, please; pIC50 means minus log10 of the concentration in mol/L.

Fill in: UniProt P07947 pIC50 for Cc1ccc(NC(=O)c2cccc(C(F)(F)F)c2)cc1CCc1cc(Nc2cnccn2)[nH]n1 [Compound 3] = 7.77

====

Tested on: rat primary articular chondrocytes
Assay: Toxicity analysis (MTT) in rat primary chondrocytes
Details: rat primary chondrocytes, 24 h
Parameter: First toxic concentration at 24 h. Scope: all listed entries.
Numbers only; they are read as µM.

Worked examples, 3 compounds total:
Cc1ccc(NC(=O)c2cccc(C(F)(F)F)c2)cc1CCc1cc(Nc2cnccn2)[nH]n1 [Compound 3]
10
Cc1ccc(NC(=O)c2cc(S(=O)(=O)C3CC3)ccn2)cc1CCc1cc(Nc2cnccn2)[nH]n1 [Compound 8]
3
Cc1nc(C(=O)Nc2ccc(C)c(CCc3cc(Nc4cnccn4)[nH]n3)c2)c(C(F)(F)F)o1 [Compound 6]
3

As a next step, examine the compound that follows.
compound Cc1nccnc1Nc1cc(CCc2cc(NC(=O)c3cccc(C(F)(F)F)c3)ccc2F)n[nH]1 [Compound 15] , First toxic concentration at 24 h observed: 10

====

Measured IC50 by item
Test system: NF-kB
Test: Gene reporter (GR) assay, NF-kB activation after TNFα in JB6 Cl 41-5a (P+) cells
Assay type: cell-based, murine
Conditions: Mus musculus, JB6 Cl 41-5a, TNFα 2 ng/ml, non toxic concentrations; read-out: Gene reporter (GR) inhibition IC50
Please reply with the bare figure in nM and do not write the unit itself.

Recorded IC50, per entry:
Cc1nc(C(=O)Nc2ccc(C)c(CCc3cc(Nc4cnccn4)[nH]n3)c2)c(C(F)(F)F)o1 [Compound 6]
2670
Cc1ccc(NC(=O)c2cccc(S(C)(=O)=O)c2)cc1CCc1cc(Nc2cnccn2)[nH]n1 [Compound 1]
5080

Form: molecule = Cc1cnc(Nc2cc(CCc3cc(NC(=O)c4cccc(C(F)(F)F)c4)ccc3F)n[nH]2)c(C)n1 [Compound 14] ; IC50 = 487

Please fill in: IC50 reported for Cc1nc(C#N)cc(Nc2cc(CCc3cc(NC(=O)c4ccc(CN(C)C)c(C(F)(F)F)c4)ccc3F)n[nH]2)n1 [Compound 39] = 1060

Notebook: Cc1ccc(NC(=O)c2cccc(C(F)F)c2)cc1CCc1cc(Nc2cnccn2)[nH]n1 [Compound 33] , IC50 read as 363

For reference, reported IC50 for CCC1(CC)CCN(C(=O)Nc2ccc(C)c(CCc3cc(Nc4cnccn4)[nH]n3)c2)C1 [Compound 22] stands at 1140

// Cc1ccc(NC(=O)NC2CCC(C)(C)CC2)cc1CCc1cc(NC(=O)c2ccc(OC3CN(C(C)C)C3)cc2)[nH]n1 [Compound 23] : IC50 value = 1440
